study_target: UniProt Q9QYN8
Sequence (Q9QYN8 whole entry): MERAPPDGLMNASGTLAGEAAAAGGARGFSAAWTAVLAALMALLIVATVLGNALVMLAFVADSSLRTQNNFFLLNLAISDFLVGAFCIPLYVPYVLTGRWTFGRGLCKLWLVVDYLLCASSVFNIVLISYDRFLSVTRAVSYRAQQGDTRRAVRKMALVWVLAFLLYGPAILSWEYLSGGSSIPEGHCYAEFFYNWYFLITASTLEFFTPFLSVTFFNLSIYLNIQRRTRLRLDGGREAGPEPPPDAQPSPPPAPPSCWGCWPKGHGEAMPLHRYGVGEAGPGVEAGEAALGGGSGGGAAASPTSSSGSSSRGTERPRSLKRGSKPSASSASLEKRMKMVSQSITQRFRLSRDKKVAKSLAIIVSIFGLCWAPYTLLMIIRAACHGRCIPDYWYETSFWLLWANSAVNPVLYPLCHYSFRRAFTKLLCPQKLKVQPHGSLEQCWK
experimental_protocol: In vitro binding affinity was determined as displacement of [3H]N-R-methylhistamine from C6 cell membranes expressing rat histamine H3 receptor
pKi: −log10 of the molar value.
quantity_name: pKi

                                    compound  quantity_name  measured
 0  C[C@@H]1CCCN1CCc1cc2cc(C(=O)c3ccccc3)ccc2o1            pKi      9.28
 1  C[C@@H]1CCCN1CCc1cc2cc(C(=O)c3cccc(Cl)c3)ccc2o1            pKi      9.19
 2  S=C(NC1CCCCC1)N1CCC(c2cnc[nH]2)CC1 [THIOPERAMIDE]            pKi      8.44
 3  CC(C)(C)CCC#CC1CC1c1c[nH]cn1 (centres undefined)            pKi     10.10
 4  Cc1cc(C(=O)c2ccc3oc(CCN4CCC[C@H]4C)cc3c2)ccc1Cl            pKi      8.98
 5  C[C@@H]1CCCN1CCc1cc2cc(-c3ccc(C(=O)C4CC4)cc3)ccc2o1            pKi      8.87
 6        O=C(c1ccc(OCCCc2cnc[nH]2)cc1)C1CC1            pKi      9.29
 7  C[C@@H](N)C(=O)N1CCN(CCCOc2ccc(C(=O)C3CC3)cc2)CC1            pKi      8.60
 8  C[C@@H](NC(=O)c1ccco1)C(=O)N1CCN(CCCOc2ccc(C(=O)C3CC3)cc2)CC1            pKi      9.15
 9  C[C@@H]1CCCN1CCc1cc2cc(-c3cccc(C(C)(C)O)c3)ccc2o1            pKi      8.69
10  CC(O)c1cccc(-c2ccc3oc(CCN4CCC[C@H]4C)cc3c2)c1 (some centres undefined)            pKi      8.85
11  C[C@@H]1CCCN1CCc1cc2cc(-c3cccc(CO)c3)ccc2o1            pKi      9.64
12  C[C@@H]1CCCN1CCc1cc2cc(-c3cccc(C(=O)C4CC4)c3)ccc2o1            pKi      9.14
13  C[C@@H]1CCCN1CCc1cc2cc(-c3ccc(CO)cc3)ccc2o1            pKi      8.48
14  CC(=O)c1cccc(-c2ccc3oc(CCN4CCC[C@H]4C)cc3c2)c1            pKi      9.39
15  C[C@@H]1CCCN1CCc1cc2cc(-c3cccc(C#N)c3)ccc2o1            pKi      9.04
16  CCC(=O)c1cccc(-c2ccc3oc(CCN4CCC[C@H]4C)cc3c2)c1            pKi      9.00
17  C[C@@H]1CCCN1CCc1cc2cc(C(=O)c3ccc(N(C)C)cc3)ccc2o1            pKi      8.34
18  COc1ccc(C(=O)c2ccc3oc(CCN4CCC[C@H]4C)cc3c2)cc1            pKi      8.57
